Reference for the values: patent US8642801B2

target: Aβ1-40 (Homo sapiens, UniProt P05067); construct: most is normally secreted as a 40 (“Aβ1-40”) or 42 (“Aβ1-42”) amino acid peptide; assay: MS (electrospray mass spectrometry) binding assay for Aβ40; settings: Table 3C; 20 μM Aβ peptide, 100 μM compound
Sequence (P05067 672-711 limits assumed): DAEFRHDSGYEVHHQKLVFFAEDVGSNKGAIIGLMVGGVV
assay.metric: MS binding Aβ1-40

{"molecule": "CCCCCCCCCNCCC(C)S(=O)(=O)[O-].[Na+] (stereo not shown)", "study.system": "Aβ1-40 (Homo sapiens, UniProt P05067)", "measurement": "++ (40-74% binding=(++))"}
{"molecule": "O=S(=O)(O)CCCNCc1ccccc1OC(F)(F)F", "study.system": "Aβ1-40 (Homo sapiens, UniProt P05067)", "measurement": "++ (40-74% binding=(++))"}
{"molecule": "CC(CCN(C)C)S(=O)(=O)[O-].[Na+] (stereo not shown)", "study.system": "Aβ1-40 (Homo sapiens, UniProt P05067)", "measurement": "+ (20-39% binding=(+))"}
{"molecule": "CC(CCNC1CC2CCC1C2)S(=O)(=O)O (stereo not shown)", "study.system": "Aβ1-40 (Homo sapiens, UniProt P05067)", "measurement": "++ (40-74% binding=(++))"}
{"molecule": "CC(CCNC1CCCc2ccccc21)S(=O)(=O)O (stereo not shown)", "study.system": "Aβ1-40 (Homo sapiens, UniProt P05067)", "measurement": "+ (20-39% binding=(+))"}
{"molecule": "C[C@H]([C@@H](O)c1ccccc1)N(C)CCCS(=O)(=O)O", "study.system": "Aβ1-40 (Homo sapiens, UniProt P05067)", "measurement": "− (<20%=(−))"}
{"molecule": "C[C@H](NCCCS(=O)(=O)O)c1ccccc1", "study.system": "Aβ1-40 (Homo sapiens, UniProt P05067)", "measurement": "+ (20-39% binding=(+))"}
{"molecule": "CCCC(CO)NCCC(C)S(=O)(=O)O (racemic)", "study.system": "Aβ1-40 (Homo sapiens, UniProt P05067)", "measurement": "++ (40-74% binding=(++))"}
{"molecule": "CCOc1ccccc1CNCCCS(=O)(=O)O", "study.system": "Aβ1-40 (Homo sapiens, UniProt P05067)", "measurement": "+ (20-39% binding=(+))"}
{"molecule": "COc1ccc(OC)c(CNCCCS(=O)(=O)O)c1", "study.system": "Aβ1-40 (Homo sapiens, UniProt P05067)", "measurement": "+ (20-39% binding=(+))"}
{"molecule": "O=S(=O)([O-])CCC[N+]12CCC(CC1)CC2", "study.system": "Aβ1-40 (Homo sapiens, UniProt P05067)", "measurement": "− (<20%=(−))"}
{"molecule": "COc1ccccc1CNCCCS(=O)(=O)O", "study.system": "Aβ1-40 (Homo sapiens, UniProt P05067)", "measurement": "++ (40-74% binding=(++))"}
{"molecule": "C[C@@H]([C@H](O)c1ccccc1)N(C)CCCS(=O)(=O)O", "study.system": "Aβ1-40 (Homo sapiens, UniProt P05067)", "measurement": "− (<20%=(−))"}

###

biological target: IAPP (Homo sapiens, UniProt P10997); construct: which is a 37 amino acid peptide, derived from a larger precursor peptide, called pro-IAPP; assay: MS (electrospray mass spectrometry) binding assay for IAPP; conditions: Table 3C; 20 μM Aβ peptide, 100 μM compound (so in the source)
assay.metric: MS binding IAPP

{"compound": "CC(CCNC1CCCc2ccccc21)S(=O)(=O)O (stereo not drawn)", "assay.metric": "MS binding IAPP", "measurement": "++ (40-74% binding=(++))"}
{"compound": "CC(C)(C)NCCCCS(=O)(=O)O", "assay.metric": "MS binding IAPP", "measurement": "++ (40-74% binding=(++))"}

###

Molecular target: IAPP (Homo sapiens)
Construct: which is a 37 amino acid peptide, derived from a larger precursor peptide, called pro-IAPP
Sequence (P10997 34-70 limits assumed): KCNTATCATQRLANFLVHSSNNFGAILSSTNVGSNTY
Assay: MS (electrospray mass spectrometry) binding assay for IAPP
Conditions: Table 3D; 40 μM Aβ peptide, 400 μM compound (so in the source)
assay.metric: MS binding IAPP

{"structure.notation": "O=S(=O)(O)CCCN1CCc2c(I)cccc2C1", "assay.metric": "MS binding IAPP", "measurement": "+ (20-39% binding=(+))"}
{"structure.notation": "O=[N+]([O-])c1ccc2[nH]c3c(c2c1)CCN(CCCS(=O)(=O)O)C3", "assay.metric": "MS binding IAPP", "measurement": "+ (20-39% binding=(+))"}

###

Biological target: IAPP (Homo sapiens, UniProt P10997)
Construct: which is a 37 amino acid peptide, derived from a larger precursor peptide, called pro-IAPP
Sequence (P10997 34-70 limits assumed): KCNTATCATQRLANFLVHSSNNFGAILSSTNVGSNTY
Assay: MS (electrospray mass spectrometry) binding assay for IAPP
Details: Table 3C; 20 μM Aβ peptide, 100 μM compound (so in the source)

{"compound": "C[C@@H]([C@H](O)c1ccccc1)N(C)CCCS(=O)(=O)O", "study.system": "IAPP (Homo sapiens, UniProt P10997)", "MS binding IAPP": "++ (40-74% binding=(++))"}
{"compound": "CC(CCN(C)C)S(=O)(=O)[O-].[Na+] (stereo not drawn)", "study.system": "IAPP (Homo sapiens, UniProt P10997)", "MS binding IAPP": "++ (40-74% binding=(++))"}
{"compound": "CCNCC(O)CS(=O)(=O)O (stereo not drawn)", "study.system": "IAPP (Homo sapiens, UniProt P10997)", "MS binding IAPP": "++ (40-74% binding=(++))"}
{"compound": "O=S(=O)([O-])CC(O)C[N+]12CCC(CC1)CC2 (stereo not drawn)", "study.system": "IAPP (Homo sapiens, UniProt P10997)", "MS binding IAPP": "++ (40-74% binding=(++))"}
{"compound": "C[C@H](NCCCS(=O)(=O)O)c1ccccc1", "study.system": "IAPP (Homo sapiens, UniProt P10997)", "MS binding IAPP": "++ (40-74% binding=(++))"}
{"compound": "O=S(=O)(O)CC(O)CN1CCCCC1 (stereo not drawn)", "study.system": "IAPP (Homo sapiens, UniProt P10997)", "MS binding IAPP": "++ (40-74% binding=(++))"}

###

biological target: IAPP (Homo sapiens, UniProt P10997); construct: which is a 37 amino acid peptide, derived from a larger precursor peptide, called pro-IAPP; assay: MS (electrospray mass spectrometry) binding assay for IAPP; conditions: Table 3C; 20 μM Aβ peptide, 100 μM compound (so in the source)
assay.metric: MS binding IAPP

{"molecule": "O=S(=O)([O-])CCCC[N+]12CCC(CC1)CC2 [LF]", "study.system": "IAPP (Homo sapiens, UniProt P10997)", "assay.metric": "MS binding IAPP", "measurement": "+ (20-39% binding=(+))"}
{"molecule": "CCCC(CO)NCCCCS(=O)(=O)O (racemic) [LL]", "study.system": "IAPP (Homo sapiens, UniProt P10997)", "assay.metric": "MS binding IAPP", "measurement": "++ (40-74% binding=(++))"}
{"molecule": "O=S(=O)(O)CCCNC(Cc1ccccc1)c1ccccc1 (centres unmarked) [JC]", "study.system": "IAPP (Homo sapiens, UniProt P10997)", "assay.metric": "MS binding IAPP", "measurement": "+ (20-39% binding=(+))"}
{"molecule": "CCCCCCCCNCC(O)CS(=O)(=O)O (centres unmarked) [JW]", "study.system": "IAPP (Homo sapiens, UniProt P10997)", "assay.metric": "MS binding IAPP", "measurement": "++ (40-74% binding=(++))"}
{"molecule": "COc1ccc(OC)c(CNCCCS(=O)(=O)O)c1 [JB]", "study.system": "IAPP (Homo sapiens, UniProt P10997)", "assay.metric": "MS binding IAPP", "measurement": "+ (20-39% binding=(+))"}
{"molecule": "CN(C)CCCCS(=O)(=O)O [LH, 4-Dimethylamino-1-butanesulfonic acid]", "study.system": "IAPP (Homo sapiens, UniProt P10997)", "assay.metric": "MS binding IAPP", "measurement": "+ (20-39% binding=(+))"}
{"molecule": "CN(C)CCS(=O)(=O)O [KQ]", "study.system": "IAPP (Homo sapiens, UniProt P10997)", "assay.metric": "MS binding IAPP", "measurement": "+ (20-39% binding=(+))"}
{"molecule": "CCCCCCCCCNCCC(C)S(=O)(=O)[O-].[Na+] (centres unmarked) [JN, 4-(nonylamino)-2-butanesulfonic acid]", "study.system": "IAPP (Homo sapiens, UniProt P10997)", "assay.metric": "MS binding IAPP", "measurement": "+ (20-39% binding=(+))"}
{"molecule": "CCCC(CO)NCC(O)CS(=O)(=O)O (centres unmarked)", "study.system": "IAPP (Homo sapiens, UniProt P10997)", "assay.metric": "MS binding IAPP", "measurement": "++ (40-74% binding=(++))"}
{"molecule": "O=S(=O)(O)CC(O)CNC1CC2CCC1C2 (centres unmarked) [KI]", "study.system": "IAPP (Homo sapiens, UniProt P10997)", "assay.metric": "MS binding IAPP", "measurement": "+ (20-39% binding=(+))"}
